# System: R275C/Slo1WT/beta2
# MEASUREMENT DESCRIPTION: modulators of BK channel variants, profiling panel, selectivity assay, cell-based, U2OS BacMam, thallium flux, beta subunits (AID 1259406);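 note: initial slope of Thallos dye fluorescence rise after thallium is added; log ratio against the mean of 0.3% DMSO vehicle wells on the same plate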
# SETUP CONDITIONS: at 30 µM
METRIC: log fold change Tl+ flux
Answer with a bare number; do not write a unit.

Example compounds with recorded log fold change Tl+ flux:
- Nc1nc(Cl)nc2c1ncn2[C@H]1C[C@H](O)[C@@H](CO)O1: 0.0197
- COc1cccc(C(=O)Nc2cc(F)c(Br)cc2F)c1: -0.0319
- CCC(=NOc1ccc(C(F)(F)F)cn1)c1ccc(-c2ccccc2F)cc1: -0.0112
- CCN1CCC(O)(C#Cc2ccccc2)CC1: 0.0236
- CCC(C)n1ncn(-c2ccc(N3CCN(c4ccc(OCC5COC(Cn6cncn6)(c6ccc(Cl)cc6Cl)O5)cc4)CC3)cc2)c1=O (stereo not drawn): 0.0617
- COc1ccc(Cl)cc1N1C(=O)C=C(c2ccccc2)C1=O: -0.0335
- Cc1oc(S(=O)(=O)N2CCOCC2)cc1C(=O)Nc1ccc(F)cc1: -0.0174
- CC(=CCC1=C(C)C(=O)c2ccccc2C1=O)CCCC(C)CCCC(C)CCCC(C)C (stereo not drawn): -0.0288
- CO[C@H]1/C=C/O[C@@]2(C)Oc3c(C)c(O)c4c(O)c(c(C=NN5CCN(C)CC5)c(O)c4c3C2=O)NC(=O)/C(C)=C\C=C\[C@H](C)[C@H](O)[C@@H](C)[C@@H](O)[C@@H](C)[C@H](OC(C)=O)[C@@H]1C: -0.0151
- CO[C@H]1C=CO[C@@]2(C)Oc3c(C)c(O)c4c(O)c(c5c(nc6cc(C)ccn65)c4c3C2=O)NC(=O)C(C)=CC=C[C@H](C)[C@H](O)[C@@H](C)[C@@H](O)[C@@H](C)[C@H](OC(C)=O)[C@@H]1C: -0.00936

Prompt line: Indicate its recorded log fold change Tl+ flux; the compound in question is `COc1cccc(CC(=O)NC2CCN(c3nccc(C(F)(F)F)n3)CC2)c1`
Response line: 0.0233

Prompt line: Indicate its recorded log fold change Tl+ flux; the compound in question is `O=C(O)CC1(CC(=O)Nc2cccc3nsnc23)CCCCC1`
Response line: 0.0319

Prompt line: Indicate its recorded log fold change Tl+ flux; the compound in question is CN(C)[C@@H]1C(=O)C(C(=O)NCN2CCCC2)=C(O)[C@@]2(O)C(=O)C3=C(O)c4c(O)cccc4[C@@](C)(O)C3CC12 (stereo partly drawn)
Response line: 0.0233

---

# TARGET OF ASSAY: Calcium-activated potassium channel subunit alpha-1 (Homo sapiens) + Leucine-rich repeat-containing protein 26 (Homo sapiens) (UniProt Q12791+Q2I0M4)
# Sequence (Q2I0M4 whole entry, looked up, one chain of several): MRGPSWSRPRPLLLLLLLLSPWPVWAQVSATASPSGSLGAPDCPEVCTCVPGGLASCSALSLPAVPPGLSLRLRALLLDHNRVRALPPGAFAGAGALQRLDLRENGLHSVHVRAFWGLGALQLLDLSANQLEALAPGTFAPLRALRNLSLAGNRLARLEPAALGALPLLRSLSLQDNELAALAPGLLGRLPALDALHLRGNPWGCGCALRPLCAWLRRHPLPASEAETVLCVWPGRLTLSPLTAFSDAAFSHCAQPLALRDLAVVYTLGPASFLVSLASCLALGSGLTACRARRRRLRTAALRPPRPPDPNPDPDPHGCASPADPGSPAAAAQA
# MEASUREMENT DESCRIPTION: modulators of BK channel variants, profiling panel, selectivity assay, cell-based, U2OS BacMam, thallium flux, beta subunits (AID 1259406);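 note: initial slope of Thallos dye fluorescence rise after thallium is added; log ratio against the mean of 0.3% DMSO vehicle wells on the same plate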
# SETUP CONDITIONS: F380Y/Slo1WT/gamma1, at 30 µM
The source made the active and inactive calls.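 How the source made its calls: active means thallium flux through the channel raised or lowered by more than 3 SD from vehicle-only wells, actives on both sides; inactive means the rest.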
METRIC: log fold change Tl+ flux

Prompt line: Indicate its recorded log fold change Tl+ flux; the compound in question is `O=C(c1ccc(-c2cccs2)s1)c1ccc(F)cc1F`
Response line: 0.0119 (inactive)

Prompt line: Indicate its recorded log fold change Tl+ flux; the compound in question is `O=C(NNc1c(Cl)cccc1Cl)c1csc(Cc2c(Cl)cccc2Cl)n1`
Response line: -0.0234 (inactive)

Prompt line: Indicate its recorded log fold change Tl+ flux; the compound in question is `COC(=O)C(C#N)=CN(C)C`
Response line: -0.0293 (inactive)

Prompt line: Indicate its recorded log fold change Tl+ flux; the compound in question is `CO[C@H]1/C=C/O[C@@]2(C)Oc3c(C)c(O)c4c(O)c(c(C=NN5CCN(C6CCCC6)CC5)c(O)c4c3C2=O)NC(=O)/C(C)=C\C=C\[C@H](C)[C@H](O)[C@@H](C)[C@@H](O)[C@@H](C)[C@H](OC(C)=O)[C@@H]1C`
Response line: 0.0279 (inactive)

Reference source: PubChem BioAssay
